- Experimental Target: full-length collagenase (Homo sapiens, UniProt P03956)
- Sequence (P03956 100-469): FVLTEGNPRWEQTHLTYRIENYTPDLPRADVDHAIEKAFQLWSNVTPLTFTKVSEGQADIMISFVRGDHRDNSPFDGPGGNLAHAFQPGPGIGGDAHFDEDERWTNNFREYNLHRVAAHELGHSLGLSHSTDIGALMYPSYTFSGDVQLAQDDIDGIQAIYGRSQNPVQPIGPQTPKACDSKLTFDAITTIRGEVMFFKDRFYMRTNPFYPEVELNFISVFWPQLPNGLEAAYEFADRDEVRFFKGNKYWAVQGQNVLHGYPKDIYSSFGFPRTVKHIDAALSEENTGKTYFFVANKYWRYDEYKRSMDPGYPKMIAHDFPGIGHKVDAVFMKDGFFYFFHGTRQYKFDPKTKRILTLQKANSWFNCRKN
Measurement Label: pIC50
One number for each entry, as −log10 of the molar value.

input: Reported pIC50, compound CC(C)[C@H](NS(=O)(=O)c1ccc(-c2ccc(Cl)cc2)cc1)C(=O)O : ____
output: 5.12
